B1: Kinesin-like protein KIF16B, residues 1213 to 1273; numbered along this chain, Q96L93 (parent)
chain: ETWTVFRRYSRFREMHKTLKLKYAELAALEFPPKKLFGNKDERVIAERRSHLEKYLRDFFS

# Variants of: B1
# ASSAY PROCEDURE: abundance fitness (aPCA) (normalised: wild type 0, dead -1); higher = more abundant; growth selection in yeast, the domain comes from the species named
# RECORDED CONDITIONS: Homo sapiens
I'd appreciate it if you could supply abundance fitness values for the items below.
Could you respond with only the numeric value?

# input I am curious: what abundance fitness value has been reported for L21E ?
# output 0.352

# input I am curious: what abundance fitness value has been reported for E1M ?
# output -0.343

# input I am curious: what abundance fitness value has been reported for H51A ?
# output 0.043

# input I am curious: what abundance fitness value has been reported for K35A ?
# output -0.204

# input I am curious: what abundance fitness value has been reported for A28Y ?
# output -1.03

# input I am curious: what abundance fitness value has been reported for R13A ?
# output 0.096

# input I am curious: what abundance fitness value has been reported for L21K ?
# output 0.339

# input I am curious: what abundance fitness value has been reported for H16F ?
# output -0.044

# input I am curious: what abundance fitness value has been reported for W3C ?
# output -0.761

# input I am curious: what abundance fitness value has been reported for T18W ?
# output 0.472

# input I am curious: what abundance fitness value has been reported for E14A ?
# output -0.318

# input I am curious: what abundance fitness value has been reported for L19S ?
# output -1.11

# input I am curious: what abundance fitness value has been reported for E42N ?
# output 0.306

# input I am curious: what abundance fitness value has been reported for H16E ?
# output -0.842

# input I am curious: what abundance fitness value has been reported for R7K ?
# output 0.227

# input I am curious: what abundance fitness value has been reported for E47P ?
# output 0.118

# input I am curious: what abundance fitness value has been reported for V44E ?
# output -0.145

# input I am curious: what abundance fitness value has been reported for F60G ?
# output -0.647

# input I am curious: what abundance fitness value has been reported for L29M ?
# output 0.337

# input I am curious: what abundance fitness value has been reported for R8V ?
# output 0.26

# input I am curious: what abundance fitness value has been reported for F37D ?
# output -0.2

# input I am curious: what abundance fitness value has been reported for L21F ?
# output -0.559

Reference source for all entries: the Human Domainome abundance scans (Beltran et al. 2025)
